Experiment Summary: Mycobacterium tuberculosis growth inhibition, primary screen (AID 1259343)
Particulars: at 10 µM, hits give high values
Out of some 6,200 compounds screened, about 2,900 (47%) were called active. The set was probably picked from earlier hits. This is one part of the list.

{"Compound": "CCCCOc1cccc2c1CCN(CC)C2=O", "Unit Label": "%", "inhibition": -1.17}
{"Compound": "O=C1c2cccc(O)c2CCN1Cc1ccc(Br)cc1", "Unit Label": "%", "inhibition": 19.3}
{"Compound": "Clc1cc2c(c(CSc3nnc(-c4ccco4)o3)c1)OCOC2", "Unit Label": "%", "inhibition": 86.3}
{"Compound": "Oc1c(Cl)cc(Cl)c(Cl)c1Cc1c(O)c(Cl)cc(Cl)c1Cl", "Unit Label": "%", "inhibition": 102}
{"Compound": "Cc1c(C(=O)NC(C)c2cccc(Cl)c2)oc2c1C(=O)CCC2 (stereo not given)", "Unit Label": "%", "inhibition": 1.37}
{"Compound": "COc1cc(NC(=O)c2ccc(Cl)s2)cc(OC)c1", "Unit Label": "%", "inhibition": 3.54}
{"Compound": "Cc1occc1-c1nnc(SCc2nnc(-c3ccco3)o2)o1", "Unit Label": "%", "inhibition": 92.5}
{"Compound": "CCCSc1nnc(-c2c(Cl)c(CC)nn2C)s1", "Unit Label": "%", "inhibition": 52.5}
{"Compound": "Fc1ccccc1-c1nnc(SCc2cccc3ccccc23)o1", "Unit Label": "%", "inhibition": 85.9}
{"Compound": "FC(F)(F)c1cc(Nc2ncnc3sccc23)ccc1Br", "Unit Label": "%", "inhibition": 23.6}

---

Experiment Summary: Mycobacterium tuberculosis growth inhibition, primary screen (AID 1259343)
Particulars: at 10 µM, hits give high values
In all, about 6,200 compounds went through this assay and about 2,900 (47%) were called active. So high a share suggests a set chosen from earlier hits. The list shows a part of the results.
Where inhibition equals or exceeds 60%, the correct label is T; where it does not, the label is F.

{"Compound": "CCCc1cc(=O)[nH]c(-n2nc(C)cc2NC(=O)c2cccc3ccccc23)n1", "Category Label": "T"}
{"Compound": "CCN(CC)c1cc(C)nc(Nc2ccc(NC(=O)c3cccc4ccccc34)cc2)n1", "Category Label": "T"}
{"Compound": "Oc1c(-c2ccccn2)sc2ccccc12", "Category Label": "T"}
{"Compound": "O=C(Nc1ccc(-c2cnc(C3CC3)o2)cc1)C1CCCC1", "Category Label": "F"}
{"Compound": "CCc1ccc(OCc2ccccc2C(=O)Nc2ccc3nc(C)cc(N)c3c2)cc1", "Category Label": "F"}
{"Compound": "Cc1nc2ccc(I)cn2c1C=NNc1ccc(Cl)cc1", "Category Label": "F"}
{"Compound": "Cc1cc(=O)[nH]c(-n2nc(C)cc2NC(=O)c2cc(C)oc2C)n1", "Category Label": "T"}
{"Compound": "CC1CCN(CC(=O)Nc2ccc([N+](=O)[O-])cc2)CC1", "Category Label": "F"}
{"Compound": "Cc1ccc(Sc2ccc(NC(=O)Cn3cnnn3)cc2)cc1C", "Category Label": "F"}
{"Compound": "CN(C)S(=O)(=O)c1ccc(COc2cccc(Cl)c2)o1", "Category Label": "F"}

---

Experiment Summary: Mycobacterium tuberculosis growth inhibition, primary screen (AID 1259343)
Particulars: at 10 µM, hits give high values
In all, about 6,200 compounds went through this assay and about 2,900 (47%) were called active. The set was probably picked from earlier hits. The list shows a part of the results.

{"Compound": "Oc1ccc(Nc2nc3nonc3nc2Nc2cccc(Br)c2)cc1", "inhibition / %": 49.2}
{"Compound": "CN1CCN(S(=O)(=O)c2ccc(SCCOc3ccccc3Cl)nc2)CC1", "inhibition / %": 90}
{"Compound": "ClC1(Cl)CC1Cn1c(Cc2ccccc2)nc2ccccc21 (centres undefined)", "inhibition / %": 25.7}
{"Compound": "CCc1ccc(OCCn2c(CO)nc3ccccc32)cc1", "inhibition / %": 34.1}
{"Compound": "CCN(Cc1ccccc1)C(=O)c1ccc(-c2ccccc2)nc1N1CCOCC1", "inhibition / %": 20.4}
{"Compound": "CC(CCc1ccccc1)NC(=O)NCCC1CCCC1 (centres undefined)", "inhibition / %": -6.93}
{"Compound": "Ic1ccc(Nc2nc3nonc3nc2NCc2ccco2)cc1", "inhibition / %": 101}
{"Compound": "Cc1cc(=O)[nH]c(-n2nc(C)cc2NC(=O)c2ccccc2)n1", "inhibition / %": 101}
{"Compound": "CCCCc1ccc(NC(=O)CSc2n[nH]c(=O)c3cc(-c4ccco4)nn23)cc1", "inhibition / %": 98.1}
